system.name: T1, Human PTGFRN-ECD (extracellular domain; amino-acid 26 to amino-acid Y at 832), His-tag protein (human, UniProt Q9P2B2 26-832)
T1 construct: range 26-832; Expressed in Hek-293 cells, purified on a nickel column; also called recombinant PTGFRN; not shown: His-tag
T1 sequence (looked up): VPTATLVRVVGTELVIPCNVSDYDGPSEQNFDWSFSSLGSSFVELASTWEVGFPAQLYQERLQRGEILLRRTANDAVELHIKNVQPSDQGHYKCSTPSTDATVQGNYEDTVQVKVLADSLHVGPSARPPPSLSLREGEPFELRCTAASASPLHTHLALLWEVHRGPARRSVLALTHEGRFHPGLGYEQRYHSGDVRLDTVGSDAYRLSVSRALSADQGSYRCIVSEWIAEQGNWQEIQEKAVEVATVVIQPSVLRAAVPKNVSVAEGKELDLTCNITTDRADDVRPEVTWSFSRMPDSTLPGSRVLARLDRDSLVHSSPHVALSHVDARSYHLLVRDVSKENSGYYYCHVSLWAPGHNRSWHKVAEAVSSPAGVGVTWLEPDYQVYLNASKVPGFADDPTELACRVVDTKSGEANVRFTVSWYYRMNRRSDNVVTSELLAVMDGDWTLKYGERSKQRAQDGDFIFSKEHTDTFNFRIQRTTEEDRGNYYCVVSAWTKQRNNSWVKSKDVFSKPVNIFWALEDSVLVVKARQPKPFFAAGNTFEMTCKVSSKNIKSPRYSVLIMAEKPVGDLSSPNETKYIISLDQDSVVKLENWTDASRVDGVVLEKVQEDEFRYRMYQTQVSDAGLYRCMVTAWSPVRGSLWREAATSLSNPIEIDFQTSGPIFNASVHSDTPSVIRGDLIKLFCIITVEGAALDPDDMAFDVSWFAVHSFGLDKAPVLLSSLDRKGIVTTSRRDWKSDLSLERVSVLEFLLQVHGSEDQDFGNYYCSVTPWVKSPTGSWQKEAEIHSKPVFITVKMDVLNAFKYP
experiment.description: Octet Red96 pairing (binning matrix) on PTGFRN-ECD; capture Ab (1st loading Ab): 33B7
// values below are reported Octet pairing response
assay.readout: Octet pairing response

1. 1E2 (antibody, V domains shown, Mouse hybridoma mAb) VH: DVQLQESGPGLVKPSQSLSLTCSVTDYSITSGYYWNWIRQFPGNKLEWMGYISYDGSNNYNPSLKNRLSITRDTSKNQFFLKLNSVTPEDTATYYCARGWDYCFDYWGQGATLTVSS VL: DIQMTQTTSSLSASLGDRVTISCSASQGISNYLNWYQQKPDGTVKLLIYYTSGLHSGVPSRFSGSGSGTDYSLTISNLEPEDIATYYCQQYSQLPWTFGGGTKLEIK ... 0.185
2. 3E10 (antibody, V domains shown) VH: EVHLVESGGDLVKPGGSLKLSCAASGFTFSSYGMSWVRQTPDKRLEWVASISSGGSHTYYPDRVKGRFTISRDNAKNTLYLQMSSLKSEDTAMYYCARHPSYYGSSLYCFDYWGQGTTLTVSS VL: DIQMTQTTSSLSASLGDRVTISCRASQDISNYLNWYQQKPDGTVKLLIYYTSRLHSGVPSRFSGSGSGTDFSLTISNLEQEDVATYFCQQGSTLPWTFGGGTKLEIK ... 0.252
3. 6F6 (antibody, V domains shown, Mouse hybridoma mAb) VH: QVQLQQSGAELVKPGASVKVSCKASGYTFTTYWMHWVKQRPGQGLEWIGRIHPSDSDTNYNQKFKGKATLTLDKSSSTAYMQLSSLTSEDSAVYYCAMSLYYTMDYWGQGTSVTVSS VL: DIQMTQSPSSLSASLGGKVTITCKASQDIKKYIAWYQHKPGKGPRLLIHYTSTLQPGIPSRFSGSGSGRDYSFSISNLEPEDIATYYCLQYDNLLYTFGGGTKLEIK ... 0.126
